Data origin: patent US9115137B2

EXPERIMENTAL TARGET: human recombinant serotonin (5-Hydroxytryptamine) 5-HT6 receptor (Homo sapiens, UniProt P50406)
Construct: expressed in transfected cells; host or cells: human HeLa cells
Sequence (P50406 whole entry): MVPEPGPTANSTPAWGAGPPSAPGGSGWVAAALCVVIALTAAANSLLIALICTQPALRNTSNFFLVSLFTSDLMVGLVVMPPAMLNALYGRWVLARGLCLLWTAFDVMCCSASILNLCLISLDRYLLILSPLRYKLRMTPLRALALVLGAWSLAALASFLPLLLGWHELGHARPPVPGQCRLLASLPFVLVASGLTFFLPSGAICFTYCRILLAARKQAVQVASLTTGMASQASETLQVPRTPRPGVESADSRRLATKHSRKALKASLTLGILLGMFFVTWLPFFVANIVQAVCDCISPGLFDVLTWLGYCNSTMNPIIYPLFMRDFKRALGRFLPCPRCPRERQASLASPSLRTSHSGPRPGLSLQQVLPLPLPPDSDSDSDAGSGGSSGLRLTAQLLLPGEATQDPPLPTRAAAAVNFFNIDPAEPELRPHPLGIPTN
EXPERIMENT DESCRIPTION: Serotonin 5-HT6 radioligand binding ([3H]LSD)
TEST CONTEXT: compound at 1 μM; HeLa cells; read-out: Serotonin (1 μM) 5-HT6, percent inhibition of specific binding
inhibition at 1 µM of 80% or higher: yes. Under 80%: no.

CCOC(=O)Cn1c2c(c3cc(C)ccc31)CN(C)CC2; no
Cc1ccc2c(c1)c1c(n2CCBr)CCN(C)C1; yes
CCOC(=O)CCn1c2c(c3cc(Cl)ccc31)CN(C)CC2; yes

Now turn to the next compound.
Task: Say whether "Cc1ccc2c(c1)c1c(n2CC(=O)NC(C)(C)C)CCN(C)C1" shows inhibition at 1 µM of 80% or more.
Output: no
